Sourced from patent US20250320312A1

- target: BSA (UniProt P02769)
- Sequence (P02769 25-607 limits assumed): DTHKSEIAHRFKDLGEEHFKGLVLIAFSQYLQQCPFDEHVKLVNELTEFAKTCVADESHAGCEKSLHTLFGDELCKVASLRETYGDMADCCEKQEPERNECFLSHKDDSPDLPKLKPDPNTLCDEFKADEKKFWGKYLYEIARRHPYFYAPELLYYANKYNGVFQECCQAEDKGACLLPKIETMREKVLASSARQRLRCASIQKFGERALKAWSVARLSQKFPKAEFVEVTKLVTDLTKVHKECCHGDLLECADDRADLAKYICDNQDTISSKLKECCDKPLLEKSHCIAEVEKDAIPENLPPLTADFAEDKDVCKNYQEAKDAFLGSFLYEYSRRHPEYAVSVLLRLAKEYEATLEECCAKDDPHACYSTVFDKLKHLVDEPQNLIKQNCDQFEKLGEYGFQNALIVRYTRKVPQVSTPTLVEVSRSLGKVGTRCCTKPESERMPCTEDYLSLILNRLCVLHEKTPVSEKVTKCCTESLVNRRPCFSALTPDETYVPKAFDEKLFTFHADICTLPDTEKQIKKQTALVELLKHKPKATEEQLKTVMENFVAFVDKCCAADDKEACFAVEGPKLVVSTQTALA
- measurement description: scFv ELISA
measurement kind: OD450 (OD450)
Provide only the numeric value, understood in OD450.

Check out these entries, answers already filled in.
{"binder": "PcOxP_DB04_F06 (scFv, V domains shown, scFv in periplasmic extract) VH: EVQLLESGGGLVQPGGSLRLSCAASGDTFSDFYMEWVRQAPGKGLEWVAASRNKANDYTTEYADSVKGRFTISRDNSKNTLYLQMNSLRAEDTAVYYCARDYYGSSYWYFDVWGQGTLVTVSS VL: DIQMTQSPSSLSASVGDRVTITCTASESLSSSKHKVHYLAWYQQKPGKAPKLLIYGASNRYIGVPSRFSGSGSGTDFTLTISSLQPEDFATYYCAQFYSYPLTFGGGTKVEIK", "OD450 [OD450]": 0.1}
{"binder": "PcOxP_DB01_C04 (scFv, V domains shown, scFv in periplasmic extract) VH: EVQLLESGGGLVQPGGSLRLSCAASGFQFSDFYMEWVRQAPGKGLEWVAASRNKANDYTTEYADSVKGRFTISRDNSKNTLYLQMNSLRAEDTAVYYCARDYYGSSYWYFDVWGQGTLVTVSS VL: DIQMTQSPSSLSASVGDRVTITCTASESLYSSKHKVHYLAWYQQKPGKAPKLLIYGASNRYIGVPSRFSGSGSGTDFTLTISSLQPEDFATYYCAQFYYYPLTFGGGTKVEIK", "OD450 [OD450]": 0.08}
{"binder": "PcOxP_DB01_G04 (scFv, V domains shown, scFv in periplasmic extract) VH: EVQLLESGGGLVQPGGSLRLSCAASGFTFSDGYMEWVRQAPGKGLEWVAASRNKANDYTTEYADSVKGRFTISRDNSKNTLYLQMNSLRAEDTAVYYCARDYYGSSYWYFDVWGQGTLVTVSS VL: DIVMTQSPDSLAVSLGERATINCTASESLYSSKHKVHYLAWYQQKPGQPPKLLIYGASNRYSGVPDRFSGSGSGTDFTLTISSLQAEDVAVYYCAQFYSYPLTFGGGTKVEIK", "OD450 [OD450]": 0.07}

Quick one: OD450 for PcOxP_DB01_G02 (scFv, V domains shown, scFv in periplasmic extract) VH: EVQLLESGGGLVQPGGSLRLSCAASGFLFSDFYMEWVRQAPGKGLEWVAASRNKANDYTTTYADSVKGRFTISRDNSKNTLYLQMNSLRAEDTAVYYCARDYYGSHYWYFDVWGQGTLVTVSS VL: DIVMTQSPDSLAVSLGERATINCTASESLYSSKHKVHYLAWYQQKPGQPPKLLIYGASNREIGVPDRFSGSGSGTDFTLTISSLQAEDVAVYYCAQFYFYPLTFGGGTKVEIK ?
0.06

Same question, PcOxP_DB04_B06 (scFv, V domains shown, scFv in periplasmic extract) VH: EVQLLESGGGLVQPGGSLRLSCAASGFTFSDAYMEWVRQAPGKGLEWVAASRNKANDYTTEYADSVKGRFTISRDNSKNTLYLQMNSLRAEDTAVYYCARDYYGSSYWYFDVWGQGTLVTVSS VL: DIQMTQSPSSLSASVGDRVTITCTASESLYSSKHKVHYLAWYQQKPGKAPKLLIYGASNRYIGVPSRFSGSGSGTDFTLTISSLQPEDFATYYCAQFYDYPLTFGGGTKVEIK this time
0.1

Same question, PcOxP_DB02_E11 (scFv, V domains shown, scFv in periplasmic extract) VH: EVQLLESGGGLVQPGGSLRLSCAASGFTFSDQYMEWVRQAPGKGLEWVAASRNKANDYTVEYADSVKGRFTISRDNSKNTLYLQMNSLRAEDTAVYYCARDYYGSSYWYFDVWGQGTLVTVSS VL: DIVMTQSPDSLAVSLGERATINCKSSESLLYSKNNKNYLAWYQQKPGQPPKLLIYGASNRYSGVPDRFSGSGSGTDFTLTISSLQAEDVAVYYCAQFYSYPLTFGGGTKVEIK this time
0.06

Same question, PcOxP_DB03_B11 (scFv, V domains shown, scFv in periplasmic extract) VH: EVQLLESGGGLVQPGGSLRLSCAASGFTFSDFYVEWVRQAPGKGLEWVAASRNKANTYTTEYADSVKGRFTISRDNSKNTLYLQMNSLRAEDTAVYYCARDYYGSSYWYFDVWGQGTLVTVSS VL: DIVMTQSPDSLAVSLGERATINCTASESLYSSKHKVHYLAWYQQKPGQPPKLLIYGAQNRYIGVPDRFSGSGSGTDFTLTISSLQAEDVAVYYCGQFYSYPLTFGGGTKVEIK this time
0.07
